System: LOX IMVI melanoma
Test: NCI tumour cell line growth inhibition, 48 h
Recorded TGI by entry

Consider the worked cases shown below.
COMPOUND	TGI
CC(C)=CCC[C@@H](C)C1=C(O)C(Nc2ccccc2Br)=C(C)C(=O)C1=O	> 100 µM
COc1cc(N(CCC#N)CCC#N)ccc1/C=C1\SC(=S)NC1=O	> 100 µM
CC1CN=C(Nc2ccc(F)cc2F)S1 (stereo not given)	> 100 µM
CN(C)c1ccc(N2Cc3ccccc3OC3=C2C(=O)c2c(O)ccc(O)c2C3=O)cn1	0.48 µM

With those in mind, consider the next compound.
Task: Look up TGI: O=S(=O)(/C=C/c1ccc(Cl)cc1Cl)Cc1ccccc1CS(=O)(=O)/C=C/c1ccc(Cl)cc1Cl
Output: > 100 µM
